# SYSTEM_UNDER_TEST: Cellular tumor antigen p53 (Homo sapiens) (UniProt P04637)
# Sequence (P04637 whole entry, looked up): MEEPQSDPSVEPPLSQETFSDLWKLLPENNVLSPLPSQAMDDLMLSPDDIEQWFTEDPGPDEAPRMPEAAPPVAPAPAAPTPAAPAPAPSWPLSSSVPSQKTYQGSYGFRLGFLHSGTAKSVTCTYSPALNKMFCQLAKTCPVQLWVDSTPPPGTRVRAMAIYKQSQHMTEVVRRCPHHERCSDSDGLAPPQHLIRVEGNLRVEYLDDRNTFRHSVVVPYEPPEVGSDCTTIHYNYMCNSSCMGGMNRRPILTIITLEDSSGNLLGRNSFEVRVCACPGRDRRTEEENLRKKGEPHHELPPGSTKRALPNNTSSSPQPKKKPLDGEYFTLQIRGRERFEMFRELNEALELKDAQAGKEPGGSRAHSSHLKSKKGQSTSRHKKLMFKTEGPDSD
# EXPERIMENTAL_PROTOCOL: kinase inhibitors altering GFP-p53 stability in HPV16-positive cells, imaging, known kinase inhibitor set, EGFP/DsRed ratio (AID 1053116);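 note: cells exposed to compounds for 24 h at 37 °C before reading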
# REPORTED_CONDITIONS: stronger effect = higher value; measured here: GFP-p53 positive objects count
MEASUREMENT_TYPE: EGFP object count
Numbers only.

CCn1c(-c2nonc2N)nc2cncc(C(=O)N3CCNCC3)c21: 8

# return EGFP object count for each item in the list
1. O=c1c(Oc2ccc(F)cc2F)cc2cnc(NC3CCOCC3)nc2n1CCCO
2. Cc1cc(O)cc(C)c1/C=C/c1cncc(C(=O)N(C)C)c1
3. CN(C)CCCn1c(-c2nonc2N)nc2cnccc21
4. COC(=O)Nc1nc2ccc(Oc3ccc(NC(=O)Nc4cccc(Cl)c4)cc3)cc2[nH]1

**A:**
[2.5, 4.5, 3.5, 79.5]

**Q:** Return EGFP object count (reported value) for this compound: `O=C1NC(=O)C(c2ccccc2Cl)=C1Nc1cccc(O)c1`
**A:** 5.5

----------
# EXPERIMENTAL_PROTOCOL: LFS_MB_P medulloblastoma growth inhibition, cell-based, chromothripsis tumors, cisplatin or BGB combos (AID 1671449);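 note: cells exposed for 96 hours; 0% = vehicle DMSO and 100% = killing by high DMSO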
# REPORTED_CONDITIONS: LFS_MB_P medulloblastoma cells, measured here: combination with BGB IC40, at 0.005 µM
MEASUREMENT_TYPE: inhibition (%)
One number for each entry, in %.

Past entries and their recorded results:
CC(=O)OCC(CCn1cnc2cnc(N)nc21)COC(C)=O: -16.3
CCn1cc(C(=O)O)c(=O)c2cc(F)c(N3CCNCC3)cc21: -10.9
CCN(CC)CCCC(C)Nc1c2ccc(Cl)cc2nc2ccc(OC)cc12 (centres undefined): 18.9

**Q:** Return inhibition (reported value) for this compound: `O=c1[nH]cc(F)c(=O)[nH]1`
**A:** -26

----------
# Tested on: F380Y/beta4
# EXPERIMENTAL_PROTOCOL: modulators of BK channel variants, profiling panel, selectivity assay, cell-based, U2OS BacMam, thallium flux, beta subunits (AID 1259406);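 note: initial slope of Thallos dye fluorescence rise after thallium is added; log ratio against the mean of 0.3% DMSO vehicle wells on the same plate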
# REPORTED_CONDITIONS: at 30 µM
Activity calls are given as the source filed them.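 How the source made its calls: active means thallium flux through the channel raised or lowered by more than 3 SD from vehicle-only wells, actives on both sides; inactive means the rest.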
Would you kindly list log fold change Tl+ flux for each of these compounds?

Past entries and their recorded results:
CCOC(=O)[C@H](CCc1ccccc1)N[C@H]1CCc2ccccc2N(CC(=O)O)C1=O: 0.0138 (inactive)
O=C(O)CCCc1ccccc1: 0.0283 (inactive)
CC1=NS(=O)(=O)c2cc(Cl)ccc2N1: -0.0353 (inactive)
CCCNC(=O)NS(=O)(=O)c1ccc(Cl)cc1: 0.0279 (inactive)
NS(=O)(=O)c1cc2c(cc1Cl)NC=NS2(=O)=O: -2.4e-05 (inactive)

# return log fold change Tl+ flux for each item in the list
1. C[C@@H](O)[C@H]1C(=O)N2C(C(=O)O)=C(S[C@@H]3CN[C@H](C(=O)N(C)C)C3)[C@H](C)[C@H]12
2. CN(C)C(=O)Oc1ccc[n+](C)c1

**A:**
["-0.00589 (inactive)", "-0.0469 (inactive)"]

# return log fold change Tl+ flux for each item in the list
1. CCCN(CCC)S(=O)(=O)c1ccc(C(=O)O)cc1
2. CC(C[N+](C)(C)C)OC(N)=O (centres undefined)
3. CN(C)CCCN1c2ccccc2CCc2ccccc21
4. OCCN1CCN(CCCN2c3ccccc3Sc3ccc(C(F)(F)F)cc32)CC1
5. CSc1ccc2c(c1)N(CCC1CCCCN1C)c1ccccc1S2 (centres undefined)

**A:**
1: -0.0299 (inactive); 2: 0.00469 (inactive); 3: 0.133 (active); 4: 0.354 (active); 5: 0.259 (active)

# return log fold change Tl+ flux for each item in the list
1. CC(=O)OCC[N+](C)(C)C
2. COc1ccc(Cl)cc1C(=O)NCCc1ccc(S(=O)(=O)NC(=O)NC2CCCCC2)cc1
3. Nc1nc2c(ncn2COCCO)c(=O)[nH]1
4. Nc1ccc(S(=O)(=O)c2ccc(N)cc2)cc1
5. Cc1cn([C@H]2C[C@H](N=[N+]=[N-])[C@@H](CO)O2)c(=O)[nH]c1=O
6. CCN(CC)CCOC(=O)C1(C2CCCCC2)CCCCC1
7. NNC(=O)c1ccncc1
8. Cc1cccc(CN2CCN(C(c3ccccc3)c3ccc(Cl)cc3)CC2)c1 (centres undefined)

**A:**
-0.0182 (inactive)
0.115 (active)
-0.0606 (inactive)
0.0288 (inactive)
0.0148 (inactive)
-0.0157 (inactive)
0.0513 (inactive)
-0.141 (active)

Each recorded value in this set is attributed to PubChem BioAssay.
